Experiment: Plasma protein binding, centrifugal ultrafiltration
Format: in vitro ADME
Settings: Sprague-Dawley, rat, Fraction bound to plasma protein, 50 μg/mL, mean ± SD
measuredProperty: fraction unbound at 1 h, 50 μg/mL

> print(dat)
   compoundstructurestring  reportedmeasurement
1  Oc1c(Br)cc(Cl)c2cccnc12                0.017

====

Test: Pharmacokinetics and bioavailability in SD rats
Assay type: in vivo
Settings: Sprague-Dawley, rat, plasma, po, 20 mg/kg
measuredProperty: Tmax (min)

> print(dat)
                                   compound  measuredproperty  quantityunit  reportedmeasurement
1  Oc1c(Br)cc(Cl)c2cccnc12 [CLBQ14, 7-bromo-5-chloroquinolin-8-ol]              Tmax           min                   30
